Published IC50 for Glycogen synthase kinase-3 alpha (Homo sapiens), assembled from different documents, is shown next.

Completed entries (count: 2):
[
  {
    "Molecular string": "COc1cc(Nc2nccc(Oc3ccc(NC(=O)Nc4cc(C(C)(C)C)cc(NS(C)(=O)=O)c4OC)c4ccccc34)n2)ccc1C(=O)NCCN1CCOCC1",
    "IC50": "594 nM"
  },
  {
    "Molecular string": "COc1c(NC(=O)Nc2ccc(Oc3ccnc(Nc4ccccc4)c3)c3ccccc23)cc(C(C)(C)C)cc1S(C)(=O)=O",
    "IC50": "> 16400 nM"
  }
]

Okay, here is my list. What is IC50 for each of these?
1. COc1cc(Nc2cc(Oc3ccc(NC(=O)Nc4cc(C(C)(C)C)cc(P(C)(C)=O)c4OC)c4ccccc34)ccn2)cc(S(=O)(=O)N(C)CCCN2CCOCC2)c1
2. COc1cc(Nc2cc(Oc3ccc(NC(=O)Nc4cc(C(C)(C)C)cc(NS(C)(=O)=O)c4OC)c4ccccc34)ccn2)ccc1C(=O)NCCCN1CC[S+]([O-])CC1

3940 nM
2740 nM

Below is a list of compounds. For each, state its recorded IC50.
1. COc1cc(Nc2cc(Oc3ccc(NC(=O)Nc4cc(C(C)(C)C)cc(NS(C)(=O)=O)c4OC)c4ccccc34)ccn2)cc(C(=O)NCCN2CC[S+]([O-])CC2)c1
2. COc1cc(Nc2cc(Oc3ccc(NC(=O)Nc4cc(C(C)(C)C)cc(NS(C)(=O)=O)c4OC)c4ccccc34)ccn2)ccc1C(=O)NCCN1CCCOCC1
3. CC(C)(C)c1cc(NC(=O)Nc2ccc(Oc3ccnc(Nc4ccc(S(F)(F)(F)(F)F)cc4)n3)c3ccccc23)n(-c2ccc(P(C)(C)=O)cc2)n1

1. 736 nM
2. 4480 nM
3. > 10000 nM

Give IC50 for each of the items listed below.
1. COCCOCCOCCOc1cc(Nc2nccc(Oc3ccc(NC(=O)Nc4cc(C(C)(C)C)cc(NS(=O)(=O)N5CCCCC5)c4OC)c4ccccc34)n2)cc(OC)c1
2. C#Cc1cc(Nc2nccc(Oc3ccc(NC(=O)Nc4cc(C(C)(C)C)nn4CCC)c4ccccc34)n2)cc(C(=O)NCCOCCOCCOC)c1
3. CCOc1c(NC(=O)Nc2ccc(Oc3ccnc(Nc4cc(OC)cc(OCCOCCOCCOC)c4)n3)c3ccccc23)cc(C(C)(C)C)cc1NS(C)(=O)=O
4. CC(C)(C)c1cc(NC(=O)Nc2ccc(Oc3ccnc(Nc4ccccc4)n3)c3ccccc23)n(-c2ccc(P3(=O)CCCC3)cc2)n1

1: 11300 nM; 2: 13100 nM; 3: 1530 nM; 4: 849 nM

Entry `CN1CC(=O)NCCCc2cc(ccn2)-c2ncnc(n2)Nc2cc(Cl)cc(c2)C1` has what IC50?
< 10 nM

---

Literature compilation of pIC50 measurements on Glycogen synthase kinase-3 alpha (Homo sapiens).
One number for each entry, as −log10 of the molar value.

[
  {
    "Molecular string": "COc1cc(Nc2nccc(Oc3ccc(NC(=O)Nc4cc(C(C)(C)C)cc(NS(C)(=O)=O)c4OC)c4ccccc34)n2)cc(OCCOCCOCCC(=O)O)c1",
    "pIC50": 6.82
  }
]

// input: 3 molecules below; output: pIC50 for each
1. CC(C)(C)c1cc(NC(=O)Nc2ccc(Oc3ccnc(Nc4ccc5onc(N)c5c4)n3)c3ccccc23)n(-c2ccc(P(C)(C)=O)cc2)n1
2. Cc1nc2cc(Nc3nccc(Oc4ccc(NC(=O)Nc5cc(C(C)(C)C)nn5-c5ccc(OCCN6CCOCC6)cc5)c5ccccc45)n3)ccc2[nH]1
3. COc1c(NC(=O)Nc2ccc(Oc3ccnc(Nc4ccccc4)n3)c3ccccc23)cc(C(C)(C)C)cc1P(C)(C)=O

1. 7.17
2. 5.31
3. 6.11

---

Hi, quick share: literature pIC50 data for Glycogen synthase kinase-3 alpha (Homo sapiens, UniProt P49840), several sources combined.
Answers are plain numbers, as −log10 of the molar value.

Solved entries:
[
  {
    "Compound": "CC(C)(C)c1cc(NC(=O)Nc2ccc(Oc3cc(Nc4ccc5[nH]ncc5c4)ncn3)c3ccccc23)n(-c2ccc(OCCN3CCOCC3)cc2)n1",
    "pIC50": 5.49
  },
  {
    "Compound": "C#CC(C)(C)c1cc(NC(=O)Nc2ccc(Oc3ccnc(Nc4cccc(OCCN(C)C)c4)n3)c3ccccc23)n(-c2ccc(C)cc2)n1",
    "pIC50": 6.61
  },
  {
    "Compound": "O=C1NC(=O)c2c1c1cccnc1c1[nH]c3ccccc3c21",
    "pIC50": 4.30
  }
]

Dear reader, for each entry below, please note its pIC50.
1. COc1ccc(-n2nc(C(C)(C)C)cc2NC(=O)Nc2ccc(Oc3ccnc(Nc4ccc5c(cnn5CCN5CCOCC5)c4)n3)c3ccccc23)cc1
2. COCCOCCOCCOc1cc(Nc2nccc(Oc3ccc(NC(=O)Nc4cc(C(C)(C)C)nn4C)c4ccccc34)n2)cc(OC)c1
3. C#Cc1cc(Nc2nccc(Oc3ccc(NC(=O)Nc4cc(C(C)(C)C)cc(NS(C)(=O)=O)c4OC)c4ccccc34)n2)cc(C(=O)N[C@H](C)CN2CCOCC2)c1
4. COc1cc(Nc2nccc(Oc3ccc(NC(=O)Nc4cc(C(C)(C)C)cc(NS(C)(=O)=O)c4OC)c4ccccc34)n2)cc(S(=O)(=O)C2CC2)c1
5. C#Cc1cc(Nc2nccc(Oc3ccc(NC(=O)Nc4cc(C(C)(C)C)nn4C)c4ccccc34)n2)cc(C(=O)NCCN2CCOCC2)c1
6. Cc1cc(Nc2nccc(Oc3ccc(NC(=O)Nc4cc(C(C)(C)C)nn4-c4ccc(=O)n(CCN5CCOCC5)c4)c4ccccc34)n2)cc2cn[nH]c12
7. O=C(Nc1cnccc1-c1ccccc1)c1ccnn2cc(-c3ccccc3)nc12

1: 6.31; 2: 5.28; 3: 6.12; 4: 5.54; 5: 6.30; 6: 5.56; 7: 8.96

---

Collected IC50 for Glycogen synthase kinase-3 alpha (Homo sapiens, UniProt P49840) across several studies; compounds listed below.
Answers are plain numbers, in nM.

Solved entries:
[
  {
    "Molecular string": "COc1cc(Nc2cc(Oc3ccc(NC(=O)Nc4cc(C(C)(C)C)cc(OC(CO)CO)c4OC)c4ccccc34)ccn2)cc(C(N)=O)c1",
    "Tested system": "Glycogen synthase kinase-3 alpha (Homo sapiens, UniProt P49840)",
    "Reported property": "IC50",
    "Unit": "nM",
    "Result": 4280
  },
  {
    "Molecular string": "C#Cc1cc(Nc2nccc(Oc3ccc(NC(=O)Nc4cc(C(C)(C)C)cc(NS(C)(=O)=O)c4OC)c4ccccc34)n2)cc(C(=O)N[C@@H](C)CN2CCOCC2)c1",
    "Tested system": "Glycogen synthase kinase-3 alpha (Homo sapiens, UniProt P49840)",
    "Reported property": "IC50",
    "Unit": "nM",
    "Result": 1120
  }
]

Note: attention shifts to another entry.
// IC50 lookup, key: `COc1cc(Nc2cc(Oc3ccc(NC(=O)Nc4cc(C(C)(C)C)cc(NS(C)(=O)=O)c4OC)c4ccccc34)ccn2)ccc1C(=O)NC1CCN(C)CC1`
2000

---

For reference, the following IC50 results for Glycogen synthase kinase-3 alpha (Homo sapiens) were taken from various sources.
Lab note: cut-off is 1000 nM. Strictly less in IC50 is fulfilled. Exactly 1000 nM or more is not fulfilled.

Lab note: confirm whether the reported IC50 for this compound is below 1000 nM, equality not counting. compound: `CC(C)(C)c1cc(NC(=O)Nc2ccc(Oc3ccnc(Nc4cc(C(=O)NCCN5CCOCC5)cc(C(F)(F)F)c4)n3)c3ccccc23)n(-c2cccc(CP(C)(C)=O)c2)n1`
fulfilled

In the record for `C#CC(C)(C)c1cc(NC(=O)Nc2ccc(Oc3ccnc(Nc4cccc(OCCN5CCOCC5)n4)n3)c3ccccc23)n(-c2ccc(C)cc2)n1` , is IC50 less than 1000 nM?
not fulfilled

Identify whether the compound `COc1cc(Nc2nccc(Oc3ccc(NC(=O)Nc4cc(C(C)C)nn4-c4cccc(CP(C)(C)=O)c4)c4ccccc34)n2)cc(C(=O)NCCN2CCOCC2)c1` records IC50 below 1000 nM.
not fulfilled

API: query returns whether the compound falls strictly under 1000 nM in IC50. Query: `COc1ccc(-n2nc(C(C)(C)C)cc2NC(=O)Nc2ccc(Oc3ccnc(Nc4ccc5[nH]nc(C(=O)N6CCOCC6)c5c4)n3)c3ccccc23)cn1`
not fulfilled

Threshold test, IC50 < 1000 nM: `COc1cc(Nc2cc(Oc3ccc(NC(=O)Nc4cc(C(C)(C)C)cc(CC(N)=O)c4OC)c4ccccc34)ccn2)cc(S(C)(=O)=O)c1`
not fulfilled

Problem: For the compound `CC(C)(C)c1cc(NC(=O)Nc2ccc(Oc3ccnc(Nc4ccc5scnc5c4)n3)c3ccccc23)n(-c2ccc(OCCN3CCOCC3)cc2)n1` , is IC50 under 1000 nM?
fulfilled

Would you kindly verify if IC50 of COc1c(NC(=O)Nc2ccc(Oc3ccnc(Nc4ccccc4)c3)c3ccccc23)cc(C(C)(C)C)cc1[S+](C)[O-] (single isomer, unassigned) is strictly less than 1000 nM?
not fulfilled

Does the reported IC50 of the following compound sit strictly below 1000 nM? `COCCOCCOCCOc1cc(Nc2ncc3cc(-c4cc(C(=O)Nc5cccc(C(F)(F)F)c5)ccc4C)ccc3n2)cc(OC)c1`
not fulfilled

Please indicate whether the reported IC50 of `CN1CC(=O)NCCCc2cc(ccn2)-c2ncnc(n2)Nc2cc(Cl)ccc2C1` is strictly below 1000 nM.
not fulfilled

IC50 under 1000 nM? Item: `COc1cc(Nc2cc(Oc3ccc(NC(=O)Nc4cc(C(C)(C)C)cc(P(C)(C)=O)c4OC)c4ccccc34)ccn2)ccc1C(=O)O`
fulfilled

Item `COc1cc(Nc2cc(Oc3ccc(NC(=O)Nc4cc(C(C)(C)C)cc(CC(N)=O)c4OC)c4ccccc34)ccn2)cc(OC)c1` : IC50 beneath 1000 nM, strictly?
not fulfilled

In the record for `C#Cc1cc(Nc2nccc(Oc3ccc(NC(=O)Nc4cc(C(C)C)nn4C)c4ccccc34)n2)cc(C(=O)NCCN2CCOCC2)c1` , is IC50 less than 1000 nM?
not fulfilled
